# Test system: MS2 coat protein
# Protocol Summary: apparent KD of MS2 coat protein; higher = weaker reporter binding
# Recorded Conditions: Eterna round: R107; input ligand: arginine 13.2 mM
Value Type: apparent KD of MS2 coat protein (nM)
Unit nM implied. Number only.

The examples below pair each entry with its known result.
AGGUACAGCAGGUGAUUCUGGCUGUACCAACGAGGACCGGUACGGCCGCCACUCGAAUAAACAUGAGGAUCACCCAUGUACAAAU [T''-M-T'-T-MS2 - Design 7]	20.3
AGCUCGCGAAAGCGAGCAACAUGAUCCGAAGGAGCGGGCGAAAGCCCAGGUAGGUCGCGGACAUGAGGAUCACCCAUGUCUCCUU [MAT - Exclusion Arginine A - Mod of Eli - D13]	41

Query sequence follows.
**Q:** So what's the measured apparent KD of MS2 coat protein for this one? CCAUGGCUAGGAAGGAGCGCAUACUUCACAUGAGGAUCACCCAUGUCGAGACGUGAGUCAGUGCAGGUAGGUCGCCUAGCCAUGG [Same State - Arginine B (Freestyle 30)]
**A:** 19.8
